Measured growth inhibition accompanies every entry in the list below.
- test summary: NCI Yeast Anticancer Drug Screen. Data for the mlh1 rad18 strain (AID 175)
- measurement context: S. cerevisiae mlh1 rad18 strain growth inhibition; at 5.0 µM (retest, dose inferred, filed as 0.5); active compounds read high
Compounds without any hit were thinned out: in the full panel of roughly 79,000, 15% have a hit. Activity calls are given as the source filed them. Rule as the data show it: active = growth inhibition above about 70%; inactive = the rest.
readout name: growth inhibition

{"columns": ["compound", "result"],
 "data": [
  ["Nc1nc(N)c2nc(Sc3ccc(F)cc3)c(N)nc2n1", "0% (inactive)"],
  ["C=CS(=O)(=O)c1ccc(Cl)cc1", "-73% (inactive)"],
  ["CCc1cccc(C)c1NC(=O)C(=O)CC(=O)c1ccccc1Cl", "-8% (inactive)"],
  ["O=Cc1c(O)ccc2ccccc12", "17% (inactive)"],
  ["CNS(=O)(=O)c1ccccc1C=C(c1ccccc1)c1ccccc1", "-2% (inactive)"],
  ["CCOC1(OCC)C(C)C(c2ccccc2)C(c2ccccc2)C1C (stereo not drawn)", "-9% (inactive)"],
  ["Nc1nc(N)c2nc(CNc3ccc(C(=O)NC(CCC(=O)O)C(=O)O)cc3)ccc2n1 (stereo not drawn)", "-8% (inactive)"],
  ["N#C/C(=C\\NC(=S)Nc1cc(Cl)ccc1Cl)c1nc2ccccc2s1", "21% (inactive)"],
  ["Cc1nn(C(=O)c2ccccc2O)c2c1C(c1ccc3ccccc3c1O)SC(N)=N2 (stereo not drawn)", "9% (inactive)"],
  ["OC(CC(O)(C(F)(F)Cl)C(F)(F)Cl)c1ccccc1 (stereo not drawn)", "26% (inactive)"],
  ["Oc1c(Cl)cc(Cl)cc1/C=C1\\C=Nc2ccccc21", "-3% (inactive)"],
  ["CC(=O)NC1CCCCC1c1ccc(C2CCCCC2NC(C)=O)cc1 (stereo not drawn)", "3% (inactive)"],
  ["C/C=C(\\C)C(=O)OC1C2C(C)=CC(=O)C(O)C2(C)C2C3(O)OCC24C1OC(=O)C(O)C4C(C)C3O (stereo not drawn)", "-33% (inactive)"],
  ["COC1=C(Br)C(=O)N/C1=C(\\OC)c1ccccc1", "2% (inactive)"],
  ["CN(C)C(=O)c1cc(Br)cc(-c2ccccc2)c1O", "-4% (inactive)"],
  ["CCCCCCCCCCCCCCCCS(=O)(=O)Cl", "43% (inactive)"],
  ["C[n+]1cccc2c1-c1ccccc1C2=O", "2% (inactive)"],
  ["NC(CSC1(c2ccc(Cl)cc2)c2ccccc2-c2ccccc21)C(=O)O (stereo not drawn)", "-2% (inactive)"]
]}
